The measurements presented in this section are drawn from a melting point compilation (Tetko et al.).

property: melting point

Prompt line: Quick one: melting point for O=Cc1ccc(-c2ccc(C(F)(F)F)cc2)s1 ?
Response line: 124 to 126 °C

Prompt line: Quick one: melting point for CNC(=O)COc1ccc(C(=O)O)cc1OC ?
Response line: 221 to 223 °C

Prompt line: Quick one: melting point for NCc1cccc(S(=O)(=O)NCc2cccc(F)c2)c1 ?
Response line: 101 to 103 °C

Prompt line: Quick one: melting point for CS(=O)(=O)Nc1ccc(Br)cc1Cl ?
Response line: 98 to 100 °C

Prompt line: Quick one: melting point for COC(=O)c1cc2nc(Cl)ccc2n1C ?
Response line: 134 to 136 °C

Prompt line: Quick one: melting point for O=C(O)c1cccc(NC(=O)c2cccc(Br)c2)c1 ?
Response line: 273 to 275 °C

Prompt line: Quick one: melting point for CC(=O)Nc1nc(C(=O)O)cs1 ?
Response line: 299 to 301 °C

Prompt line: Quick one: melting point for Cc1c[nH]c(=O)n1-c1ccc(F)c(F)c1 ?
Response line: 250 to 252 °C

Prompt line: Quick one: melting point for NS(=O)(=O)Cc1cccc2cccnc12 ?
Response line: 154 to 156 °C

Prompt line: Quick one: melting point for O=C(O)c1cc(S(=O)(=O)Cl)c(Br)cc1F ?
Response line: 147 to 149 °C

Prompt line: Quick one: melting point for Cc1cc(C)c2c(N)c(C(=O)NN)sc2n1 ?
Response line: 245 to 247 °C

Prompt line: Quick one: melting point for O=C(O)c1cc2c(F)cc(Br)cc2[nH]1 ?
Response line: 230 to 232 °C

Prompt line: Quick one: melting point for COC(=O)C#Cc1ccc(F)cc1F ?
Response line: 58 to 60 °C

Prompt line: Quick one: melting point for O=S(=O)(c1ccc(OCCBr)cc1)N1CCOCC1 ?
Response line: 137 to 138 °C

Prompt line: Quick one: melting point for NC(=NO)C(c1ccccc1)c1ccccc1 ?
Response line: 124 to 126 °C

Prompt line: Quick one: melting point for O=C(O)c1nn(-c2ccc(F)cc2)cc1O ?
Response line: 227 to 229 °C

Prompt line: Quick one: melting point for Cc1nn(C)c(C)c1CC(=O)O ?
Response line: 223 to 225 °C

Prompt line: Quick one: melting point for Nc1cc(-c2cc(Cl)cc(Cl)c2)[nH]n1 ?
Response line: 159 to 161 °C

Prompt line: Quick one: melting point for N#Cc1ccccc1Sc1ccc(C(=O)O)cc1 ?
Response line: 182 to 184 °C

Prompt line: Quick one: melting point for Cc1nn(-c2ccccc2)c(N)c1-c1ccccc1 ?
Response line: 82 to 84 °C

Prompt line: Quick one: melting point for CNC(=O)c1ccc(OC)c(N)c1 ?
Response line: 108 to 110 °C

Prompt line: Quick one: melting point for Cc1cccnc1NC(=O)C1CCNCC1 ?
Response line: 136 to 138 °C

Prompt line: Quick one: melting point for O=C1C=CC(=O)N1c1cnccn1 ?
Response line: 116 to 118 °C

Prompt line: Quick one: melting point for COC(=O)Nc1ccc(N)cc1 ?
Response line: 89 to 91 °C

Prompt line: Quick one: melting point for CC1(C)CC(=O)OC1=O ?
Response line: 29 to 31 °C

Prompt line: Quick one: melting point for NNC(=O)c1ccc(NS(=O)(=O)c2cccc([N+](=O)[O-])c2)cc1 ?
Response line: 80 to 82 °C

Prompt line: Quick one: melting point for O=C(O)CNC(=O)C12CC3CC(CC(C3)C1)C2 ?
Response line: 145 to 147 °C

----------
Answer each item with its documented melting point.

Prompt line: Quick one: melting point for Cc1ccc(CNC(=O)C(C#N)=CN(C)C)cc1 ?
Response line: 135 to 137 °C

Prompt line: Quick one: melting point for O=C1CCC2SCCSC12 (configuration not stated) ?
Response line: 81 to 83 °C

Prompt line: Quick one: melting point for O=S(=O)(c1cccc(C(F)(F)F)c1)N1CCNCC1 ?
Response line: 100 to 110 °C

Prompt line: Quick one: melting point for CNCCCc1n[nH]c(N)c1C#N ?
Response line: 179 to 181 °C

Prompt line: Quick one: melting point for O=C(Nc1ccc(C(=O)O)c(O)c1)c1cc(Cl)cc(Cl)c1 ?
Response line: 268 to 270 °C

Prompt line: Quick one: melting point for Nc1ccccc1NC(=O)c1cccs1 ?
Response line: 110 to 112 °C

Prompt line: Quick one: melting point for CC(=CC(=O)O)C(C)(C)C ?
Response line: 83 to 85 °C

----------
Answer each item with its documented melting point.

Prompt line: Quick one: melting point for O=C(O)c1cc2c(F)cccc2[nH]1 ?
Response line: 209 to 211 °C

Prompt line: Quick one: melting point for CC(Cl)C(=O)Nc1ccc(C(C)(C)C)cc1 (configuration not stated) ?
Response line: 143 to 145 °C

Prompt line: Quick one: melting point for O=C(NC(CO)C(=O)O)c1cccc(Br)c1 (configuration not stated) ?
Response line: 140 to 142 °C

Prompt line: Quick one: melting point for CCS(=O)(=O)N1CCC(C(=O)O)CC1 ?
Response line: 143 to 145 °C

Prompt line: Quick one: melting point for O=S(=O)(c1ccc2oc(S)nc2c1)N1CCCCC1 ?
Response line: 139 to 141 °C

Prompt line: Quick one: melting point for CC(C)C(C(=O)O)c1cccc(Cl)c1 (configuration not stated) ?
Response line: 82 to 84 °C

Prompt line: Quick one: melting point for O=C(O)C(Oc1ccc(Br)cc1Br)c1ccccc1 (configuration not stated) ?
Response line: 129 to 131 °C

----------
property: melting point

Prompt line: Quick one: melting point for CCOC(=O)c1cnc2nccn2c1 ?
Response line: 168 to 170 °C

Prompt line: Quick one: melting point for O=C(O)c1c[nH]nc1-c1cccc(Cl)c1 ?
Response line: 251 to 253 °C

Prompt line: Quick one: melting point for CS(=O)(=O)c1cc(C(=O)O)cc([N+](=O)[O-])c1 ?
Response line: 229 to 231 °C

Prompt line: Quick one: melting point for CC(C)(C)C(=O)c1ccsc1N ?
Response line: 101 to 103 °C

Prompt line: Quick one: melting point for NC(=O)CSc1nnc(S)s1 ?
Response line: 192 to 194 °C

Prompt line: Quick one: melting point for CC(O)CNC(=O)c1cccc(O)c1 (stereo not drawn) ?
Response line: 116 to 118 °C

Prompt line: Quick one: melting point for Nc1nnc(SCc2ccccc2)[nH]1 ?
Response line: 99 to 101 °C

Prompt line: Quick one: melting point for CC(O)(C(=O)O)c1cccc2ccccc12 (stereo not drawn) ?
Response line: 145 to 147 °C

Prompt line: Quick one: melting point for COc1ccc(C(=O)NC(C(=O)O)c2ccccc2)cc1 (stereo not drawn) ?
Response line: 187 to 189 °C

Prompt line: Quick one: melting point for O=S(=O)(Cl)c1ccc2oc3ccccc3c2c1 ?
Response line: 134 to 136 °C

Prompt line: Quick one: melting point for N#Cc1cccc(C(=O)NCc2ccco2)c1 ?
Response line: 86 to 88 °C

Prompt line: Quick one: melting point for CCOc1ccc2c(c1)C(=O)NC2=O ?
Response line: 159 to 161 °C

Prompt line: Quick one: melting point for ClCc1nc(-c2ccc(Br)s2)no1 ?
Response line: 42 to 44 °C

----------
property: melting point

Prompt line: Quick one: melting point for Nc1ccccc1C(=O)Nc1ccc(F)cc1Cl ?
Response line: 103 to 105 °C

Prompt line: Quick one: melting point for Cc1cc(Cl)cc2cccnc12 ?
Response line: 62 to 64 °C

Prompt line: Quick one: melting point for O=C(O)c1cc(S(=O)(=O)NCc2cccnc2)c(Cl)cc1Cl ?
Response line: 245 to 247 °C

Prompt line: Quick one: melting point for CC1(CCCC(=O)O)NC(=O)NC1=O (stereo unspecified) ?
Response line: 149 to 151 °C

Prompt line: Quick one: melting point for O=C(O)CCn1cc(Cl)cn1 ?
Response line: 91 to 93 °C

Prompt line: Quick one: melting point for COc1cc(OC)c2cc(C(=O)O)[nH]c2c1OC ?
Response line: 181 to 183 °C

Prompt line: Quick one: melting point for Cc1c(C(=O)O)sc2nccn12 ?
Response line: 241 to 243 °C

Prompt line: Quick one: melting point for CNCc1nc(-c2ccccc2)c[nH]1 ?
Response line: 117 to 119 °C

Prompt line: Quick one: melting point for O=C(CCl)Nc1nnc(C2CC2)o1 ?
Response line: 148 to 150 °C

Prompt line: Quick one: melting point for Nc1ccc([N+](=O)[O-])cc1Br ?
Response line: 99 to 101 °C

Prompt line: Quick one: melting point for CC(C)(C)OC(=O)N1CCc2ccccc21 ?
Response line: 46 to 50 °C

Prompt line: Quick one: melting point for O=C(O)CCc1nc2sc3c(c2c(=O)[nH]1)CCCC3 ?
Response line: 140 to 142 °C

Prompt line: Quick one: melting point for CC1CCCC(NC(=O)OC(C)(C)C)(C(=O)O)C1 (stereo unspecified) ?
Response line: 149 to 151 °C

Prompt line: Quick one: melting point for CCOC(=O)c1cc(Cl)cc(Br)c1N ?
Response line: 57 to 59 °C

Prompt line: Quick one: melting point for O=c1oc2ccccc2c(O)c1Cc1c(O)c2ccccc2oc1=O ?
Response line: 290 to 292 °C

Prompt line: Quick one: melting point for Cc1cc(C)n(CC(=O)NN)n1 ?
Response line: 102 to 104 °C

Prompt line: Quick one: melting point for CC1(C)CC(=O)NC1=O ?
Response line: 103 to 105 °C

Prompt line: Quick one: melting point for Cc1cccc(-c2nc(C)n[nH]2)c1 ?
Response line: 140 to 142 °C

Prompt line: Quick one: melting point for CCOc1cc(C(=O)O)c(N)cc1OC ?
Response line: 185 to 187 °C

Prompt line: Quick one: melting point for O=C(O)c1cc2ccc(F)cc2s1 ?
Response line: 220 to 222 °C

Prompt line: Quick one: melting point for CNC(=O)c1cc([N+](=O)[O-])ccc1F ?
Response line: 142 to 144 °C

Prompt line: Quick one: melting point for COc1ccc2nc(C)cc(Cl)c2c1 ?
Response line: 99 to 101 °C

Prompt line: Quick one: melting point for Cc1csc(Nc2ccccc2)n1 ?
Response line: 74 to 76 °C

Prompt line: Quick one: melting point for O=C(O)c1ccc(CN2CCCCC2=O)cc1 ?
Response line: 181 to 183 °C

Prompt line: Quick one: melting point for O=C(O)CC1(O)CCCC1 ?
Response line: 72 to 74 °C

Prompt line: Quick one: melting point for CCc1cc(C#N)c(N)s1 ?
Response line: 61 to 63 °C

Prompt line: Quick one: melting point for O=C(O)C1CCN(C(=O)C2(c3ccccc3)CCC2)CC1 ?
Response line: 146 to 148 °C

Prompt line: Quick one: melting point for CC(=O)Nc1cc(F)c(S(=O)(=O)Cl)c(F)c1 ?
Response line: 133 to 135 °C

Prompt line: Quick one: melting point for COC(=O)c1cc(S(=O)(=O)Cl)cnc1Cl ?
Response line: 48 to 50 °C

Prompt line: Quick one: melting point for Oc1ccc(-c2nc3cc(C(F)(F)F)ccc3s2)cc1 ?
Response line: 182 to 184 °C

Prompt line: Quick one: melting point for O=C(O)c1cnn(-c2ccc(Cl)cc2Cl)c1 ?
Response line: 246 to 248 °C

Prompt line: Quick one: melting point for CC(C)(C)C1CCc2sc(-c3nnc(CCl)o3)cc2C1 (stereo unspecified) ?
Response line: 89 to 91 °C

Prompt line: Quick one: melting point for CCc1ccc(N2CC(C(=O)O)CC2=O)cc1 (stereo unspecified) ?
Response line: 144 to 148 °C

Prompt line: Quick one: melting point for CCC(c1ccccc1)c1nnc(N)s1 (stereo unspecified) ?
Response line: 184 to 186 °C

Prompt line: Quick one: melting point for Nc1nc2cc(Br)ccc2n1Cc1ccccc1 ?
Response line: 213 to 215 °C

Prompt line: Quick one: melting point for CC(=O)N1Cc2ccc(N)cc2C1 ?
Response line: 169 to 171 °C

Prompt line: Quick one: melting point for Nc1ccccc1S(=O)(=O)Nc1ccccc1 ?
Response line: 118 to 120 °C

Prompt line: Quick one: melting point for Nc1ncc(C(O)(C(F)(F)F)C(F)(F)F)s1 ?
Response line: 184 to 186 °C

Prompt line: Quick one: melting point for O=C(O)c1ccc2c(c1)C(=O)N(Cc1ccccc1)C2=O ?
Response line: 198 to 200 °C

Prompt line: Quick one: melting point for CC1CC(=O)N(Cc2ccccc2)c2ccccc2N1 (stereo unspecified) ?
Response line: 110 to 112 °C

Prompt line: Quick one: melting point for Nc1ccc(C(=O)N2CC(=O)Nc3ccccc32)cc1 ?
Response line: 286 to 288 °C

Prompt line: Quick one: melting point for CN(C)c1ccc(NC(=O)NN)cc1 ?
Response line: 140 to 142 °C

Prompt line: Quick one: melting point for NC(=O)c1c(N)sc2c1-c1ccccc1CCC2 ?
Response line: 145 to 147 °C

Prompt line: Quick one: melting point for OCc1ncc(-c2ccc(F)cc2)o1 ?
Response line: 81 to 83 °C

Prompt line: Quick one: melting point for CCOC(=O)C(=O)CC(=O)c1cc(Cl)ccc1Cl ?
Response line: 76 to 78 °C

Prompt line: Quick one: melting point for CC(=O)c1cccc(S(=O)(=O)NCC(=O)O)c1 ?
Response line: 188 to 190 °C

Prompt line: Quick one: melting point for COc1ccc(Br)nc1C(F)(F)F ?
Response line: 32 to 34 °C

Prompt line: Quick one: melting point for Nc1c(Cl)cnn1C1CCN(Cc2ccccc2)C1 (stereo unspecified) ?
Response line: 106 to 108 °C

Prompt line: Quick one: melting point for NS(=O)(=O)c1ccc(OCCBr)cc1 ?
Response line: 111 to 113 °C

Prompt line: Quick one: melting point for O=c1[nH]c2ccccc2cc1CO ?
Response line: 239 to 241 °C

Prompt line: Quick one: melting point for O=S(=O)(Cl)c1cnc(Cl)cc1Cl ?
Response line: 79 to 81 °C

Prompt line: Quick one: melting point for Nc1nnns1 ?
Response line: 120 to 122 °C

Prompt line: Quick one: melting point for O=C(O)c1cc(S(=O)(=O)Cl)ccc1Br ?
Response line: 115 to 117 °C

Prompt line: Quick one: melting point for COCCn1nc(C)c(C(C)=O)c1C ?
Response line: 31 to 33 °C

Prompt line: Quick one: melting point for O=C(O)c1cncc(OCC(F)F)c1 ?
Response line: 166 to 168 °C

Prompt line: Quick one: melting point for Cc1cc(CC(=O)O)n[nH]1 ?
Response line: 116 to 118 °C
